system: E. coli ECM 1694; test: Broth dilution MIC, E. coli ECM 1694; format: cell-based; conditions: Escherichia coli, ECM1694, Table 1; range 64 down to 0.12 μg/ml; read-out: MIC E. coli ECM 1694
Mark fulfilled for MIC under 2 µg/mL, not fulfilled if at or over.

Illustrative cases are given below, each with its answer.
c1cncc(Nc2ccc(-c3cc4ccc(C5=NCCN5)cc4[nH]3)cc2)c1    fulfilled
Nc1ccc(-c2ccc3cc(-c4ccc(Nc5ccc(C6=NCCN6)cc5)cc4)[nH]c3c2)cc1    not fulfilled
c1cc(-c2cc3ccc(C4=NCCN4)cc3[nH]2)ccc1NC1CCNCC1    not fulfilled
c1ccc(-c2ccc(Nc3ccc(-c4cc5ccc(C6=NCCN6)cc5[nH]4)cc3)cc2)nc1    not fulfilled
c1cc(-c2cc3ccc(C4=NCCN4)cc3[nH]2)ccc1Nc1ccc(N2CCOCC2)cc1    fulfilled
c1cnc(-c2ccc(Nc3ccc(-c4cc5ccc(C6=NCCN6)cc5[nH]4)cc3)cc2)cn1    fulfilled
c1cc(C2=NCCN2)ccc1Nc1ccc(-c2cc3ccc(C4=NCCN4)cc3[nH]2)cc1    fulfilled

Proceed to the following item.
Lab log: compare recorded MIC with 2 µg/mL; is it strictly lower for CN1CCC(Nc2ccc(-c3cc4ccc(C5=NCCN5)cc4[nH]3)cc2)CC1 ?
fulfilled
